- measurementTarget: T1, ECF33_375
- T1 chain: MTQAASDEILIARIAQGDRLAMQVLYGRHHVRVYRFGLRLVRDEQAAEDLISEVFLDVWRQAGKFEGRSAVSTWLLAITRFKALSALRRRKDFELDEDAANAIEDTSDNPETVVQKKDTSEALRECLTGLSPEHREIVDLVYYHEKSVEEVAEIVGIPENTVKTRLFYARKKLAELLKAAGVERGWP
Give measured fold repression for each item. Keep answers brief.
Answer with a number only.

query: Note fold repression for the binder shown: AS14_1324 (protein) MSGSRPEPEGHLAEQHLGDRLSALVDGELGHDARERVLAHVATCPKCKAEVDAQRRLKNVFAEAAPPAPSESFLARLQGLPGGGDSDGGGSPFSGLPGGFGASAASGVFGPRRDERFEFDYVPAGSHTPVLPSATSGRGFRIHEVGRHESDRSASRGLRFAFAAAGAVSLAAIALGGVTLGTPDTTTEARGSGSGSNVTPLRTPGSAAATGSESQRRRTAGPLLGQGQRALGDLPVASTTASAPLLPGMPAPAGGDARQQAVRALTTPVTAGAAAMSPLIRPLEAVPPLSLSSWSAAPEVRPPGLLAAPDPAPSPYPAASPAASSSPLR
result: 3.42

query: Note fold repression for the binder shown: AS16_3622 (protein) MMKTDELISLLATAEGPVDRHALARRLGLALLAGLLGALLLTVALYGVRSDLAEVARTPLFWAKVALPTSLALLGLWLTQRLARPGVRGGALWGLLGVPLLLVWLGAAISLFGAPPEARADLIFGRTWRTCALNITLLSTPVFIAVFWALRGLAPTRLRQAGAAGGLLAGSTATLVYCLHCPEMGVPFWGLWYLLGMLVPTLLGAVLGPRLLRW
result: 1.17

The reported numbers originate from paper PMC3817407.
